# assayedTarget: T1, mouse IL-2Rβ (mouse) (UniProt P16297)
# T1 sequence (looked up): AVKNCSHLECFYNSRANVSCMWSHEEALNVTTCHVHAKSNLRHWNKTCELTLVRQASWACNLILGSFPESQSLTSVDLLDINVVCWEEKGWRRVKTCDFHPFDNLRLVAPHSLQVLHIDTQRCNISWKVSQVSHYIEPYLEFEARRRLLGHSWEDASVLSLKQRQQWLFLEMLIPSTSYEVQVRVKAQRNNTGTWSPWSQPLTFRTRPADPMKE
# testDescription: P.E. ELISA, coated protein
propertyMeasured: P.E. binding ELISA OD (OD450 nm)

binder	readoutUnit	readoutValue
FJ1427_P035MP02B10 (VHH) VHH: QVQLVESGGGLVEAGGSLRLSCAASGRAFNNFPMGWFRQAPGKEREFVAAITWISGSTLYADSVKGRFTISRDKSKNTVYLQMSGLKPEDTALYYCAAALKTITRGQHDYTYWGQGTQVTVSS	OD450 nm	0.047
FJ1427_P035MP02E01 (VHH) VHH: EVQLVESGGGLVQIGGSLRLSCAASGRTFSSITMAYFRQVPGKEREWVAGINFSGTRTFYADSVKGRFLISRDDAKSTMYLQMNSLKPEDTAVYYCAASPRGFYGPGNALYDYWGQGTQVTVSS	OD450 nm	0.049
FJ1427_P035MP02E10 (VHH) VHH: QVQLVESGGGLVQAGGSLRLSCAAAGRAIENYPVGWFRRAPGKEREFVAAITWISGSTLYADSVKGRFTISRDNAKNTVYLQMSSLKPEDTALYYCAAALKTITRGQNDYSYWGQGTQVTVSS	OD450 nm	0.047
FJ1427_P035MP06F05 (VHH) VHH: QVQLVESGGGLVQTGDSLRLSCAASGRSLDTTYIAWFRQAPGKERDFLAYISPRFSHTWYADSVKGRFTISRNIAKRTVDLEMNSLEPEDTAVYYCAAREHSGSTAWEHYDHWGQGTQVTVSS	OD450 nm	0.047
FJ1427_P035MP02F03 (VHH) VHH: EVQLVESGGGLVQAGGSLRLSCAASGGTFSSYAMGWFRQAPGKEREFVAATTRGGGRTMYAVSTEGRFTCSRDNAKNTVYLLMNSLKPEDTAVYYCAAMTSYYSGTYYPDSSDFDIWGQGTQVTVSS	OD450 nm	0.048
FJ1427 P035MP02C05 (VHH) VHH: QVQLVESGGGLVQTGGSLRLSCAVSGSRFISDVMGWYRQVPGKQRELVADMADGGSAKYADSVKGRFSILRDSVKNTVYLQMSSLKPEDTGIYYCKAGLWIAGRHSDYWGQGTQVTVSS	OD450 nm	0.047
FJ1427_P035MP02G03 (VHH) VHH: QVQLVESGGGLVQPGGSLGLSCAASGFTFSNYAMSWVRQAPGKGLEWVASITGFGRGTDYADSVKGRFTVSRDNAKNTLYLQMNSLKPEDTAVYYCAKYSSSTYYPPTPARGRDYRGQGTQVTVSS	OD450 nm	0.049
FJ1427_P035MP03F08 (VHH) VHH: EVQLVESGGGLVQTGGSLRLSCAASGGTFSRDAMAWFRQVPGKEREFVALISWSGATTNYADSVKGRFAISRDNGKNTVYLQMNRLKPADTAIYYCAADRRPMGSRSYFEPTEYDDWGQGTQVTVSS	OD450 nm	0.049
